Assignment: determine reported soluble fraction (log2) for the given sequences.
Run Description: soluble fraction after stress (log2 fold change); higher = more stays soluble; pooled small domains, quantitative proteomics
Condition Label: stress: 50 degC
Reply briefly: the number, and no unit.

Form field soluble fraction (log2), entry HMTVPNVVGQRILAAQDILKNLGLKVLVDTNLPNSQWGLRNVKSTNPGAGAVVRVGDTVTLIAR : 0.0114

Form field soluble fraction (log2), entry HMITTLLVENLQDVGMRLDHYLVYNLIKYSRSHIQSFIRSGDIRVNGKKVKTGYSLELKDLIHIEMP : -3.75

Form field soluble fraction (log2), entry HMVNDQSIYASEGYVHIRSGKPVSLRIYTILGALYRHEERLVGDHVIALPRGLYIVVLNHTAKKIMV : -1.01

Form field soluble fraction (log2), entry HMPHILEITSSKILDELQDEKKMVYFHFEKQSNQYVYRLIFNSKNELMEFKKSLEKNSSILDVRADM : 0.216

Form field soluble fraction (log2), entry HMSYQADEIKEKLIDILQNQKTGLSGLEISERIGINRITMTKYLQVFAAEGFIKQKNIGNVIIWFIEDGTE : -0.181

Form field soluble fraction (log2), entry HMNEWSIDINLADEKQWTAKTKLSPAIIQNIIRYKNYLGGFTNLNQIKKVYGFTEANYYLLKPHLQLGK : -0.909

Form field soluble fraction (log2), entry HMKLNETIAEARKRKGLTQEQLAQKLYVTRQAVSRWERGEVVPGIDMLKLIAITLEEPIVHLL : -0.769

Form field soluble fraction (log2), entry HMSNIQLVENLYRLRKAHHYTQQEISDLLNISRQAYSNYETSKRTPDLDSLMRLADIYGVSLDQLVNHP : -1.45
